system: giant foxtail (Setaria faberii); experiment: Test A postemergence; type: in vivo; settings: 500 g ai/ha, postemergence; 0 to 100 scale, 0 no effect, 100 complete control
The following molecules are listed with their measured Plant response rating, Foxtail, Giant values.
readoutType: Plant response rating, Foxtail, Giant

molecule="CN1CC(c2ccc(C(F)(F)F)c(F)c2)C(C(=O)Nc2ccccc2S(C)(=O)=O)C1=O (stereo not drawn)" readouttype="Plant response rating, Foxtail, Giant" valuemeasured=80
molecule="CN(C)c1cccc(C2CNC(=O)C2C(=O)Nc2ccccc2F)c1 (stereo not drawn)" readouttype="Plant response rating, Foxtail, Giant" valuemeasured=0
molecule="O=C1NCC(c2ccc(Br)cc2)C1C(=O)Nc1ccc(F)cc1F (stereo not drawn)" readouttype="Plant response rating, Foxtail, Giant" valuemeasured=80
molecule="O=C1NCC(c2cccc(OCC(F)F)c2)C1C(=O)Nc1ccccc1F (racemic)" readouttype="Plant response rating, Foxtail, Giant" valuemeasured=70
molecule="O=C1NCC(c2ccc(Br)cc2)C1C(=O)Nc1cccc(F)c1 (stereo not drawn)" readouttype="Plant response rating, Foxtail, Giant" valuemeasured=80
molecule="O=C1NCC(c2ccc(F)c(F)c2)C1C(=O)Nc1ccc(F)cc1Cl (stereo not drawn)" readouttype="Plant response rating, Foxtail, Giant" valuemeasured=80
molecule="CN1CC(c2ccc(Cl)cc2)C(C(=O)Nc2ccccc2F)C1=O (stereo not drawn)" readouttype="Plant response rating, Foxtail, Giant" valuemeasured=80
molecule="O=C1NCC(c2cccc(OCC(F)F)c2)C1C(=O)Nc1ccccc1Cl (stereo not drawn)" readouttype="Plant response rating, Foxtail, Giant" valuemeasured=80
molecule="COC(=O)c1ccccc1NC(=O)C1C(=O)NCC1c1ccc(F)c(F)c1 (stereo not drawn)" readouttype="Plant response rating, Foxtail, Giant" valuemeasured=0

* * *

tested on: wheat (Triticum aestivum); experiment: Test A postemergence; type: in vivo; conditions: Triticum aestivum, post-emergence, 240 h, 500 g ai/ha, postemergence; 0 to 100 scale, 0 is no effect, 100 is complete control; read-out: Wheat plant response rating
readoutType: plant injury at 500 g/ha (%)

entrysmiles=Cc1c(F)cccc1NC(=O)[C@H]1C(=O)N(C)C[C@@H]1c1ccc(OC(F)F)cc1 valuemeasured=50
entrysmiles=O=C1NC[C@H](c2cc(C(F)F)cs2)[C@H]1C(=O)Nc1cccc(F)c1F valuemeasured=70
entrysmiles=O=C1NC[C@H](c2ccc3sccc3c2)[C@H]1C(=O)Nc1cccc(F)c1F valuemeasured=0
entrysmiles=COc1ccc([C@H]2CN(C)C(=O)[C@@H]2C(=O)Nc2ccccc2F)c(OC)c1 valuemeasured=0
entrysmiles=O=C1NC[C@H](c2cc(C(F)F)cs2)[C@H]1C(=O)Nc1ccccc1F valuemeasured=20
entrysmiles=CC(C)Oc1ccc([C@H]2CNC(=O)[C@@H]2C(=O)Nc2ccccc2F)cc1 valuemeasured=0
entrysmiles=O=C1NC[C@H](c2ccc(F)c(OC(F)(F)C(F)F)c2)[C@H]1C(=O)Nc1ccccc1F valuemeasured=70
entrysmiles=CN1C[C@H](c2ccc(C#N)cc2)[C@@H](C(=O)Nc2cccc(F)c2F)C1=O valuemeasured=20
entrysmiles=CC(C)Oc1ccc([C@H]2CNC(=O)[C@@H]2C(=O)Nc2ccc(F)cc2F)cc1 valuemeasured=0
entrysmiles=CSc1ccccc1NC(=O)[C@H]1C(=O)N(C)C[C@@H]1c1ccc(C(F)(F)F)nc1 valuemeasured=60
entrysmiles=CCc1cc([C@H]2CN(C)C(=O)[C@@H]2C(=O)Nc2ccccc2F)cs1 valuemeasured=50
